- SUBJECT_OF_TEST: Histone-lysine N-methyltransferase EHMT2 (Homo sapiens)
- METHOD_SUMMARY: qHTS Assay for Inhibitors of Histone Lysine Methyltransferase G9a; note: nearly all actives have a fitted effect of over 75% in size
- REPORTED_CONDITIONS: G9a H3K9 monomethylation, AlphaScreen, 2 h; series mostly up to 59 µM
- Procedure: Methylated lysines, on the N-terminal tails of histone proteins serve as epigenetic markers to recruit factors that can then modify local chromatin structure to lead to functional consequences. […] Methylation of biotinylated-histone peptide is measured through specific antibody-based detection, in conjunction with streptavidin-coated donor and anti-IgG antibody-coated acceptor beads. […]
Screen size: about 350,000 compounds; about 31,000 (8.9%) were called active. Another 15% or so got no clear call; they are omitted. Calls come from the whole dose curve; as a rule, active = well fitted inhibition curve with a large enough effect; inconclusive = small, poorly fitted or top-dose-only effect; inactive = no such curve, though single readings can be large or run the other way. The sample holds actives, similar compounds and a random draw of the others, so the mix is not that of the screen.
Valid outcomes are listed here; reply with one: yes (1) (active), no (0) (inactive)

COMPOUND	SUBJECT_OF_TEST	LABEL_CLASS
CC1=CC2=NC(=O)/C(=C/c3coc4ccccc4c3=O)C(=N)N2O1	Histone-lysine N-methyltransferase EHMT2 (Homo sapiens)	yes (1)
O=C1NN(c2ccccc2)C(=O)/C1=C/c1ccc(-c2cccc(C(=O)O)c2)o1	Histone-lysine N-methyltransferase EHMT2 (Homo sapiens)	yes (1)
CCCc1ccc(-c2csc(NC(=O)Cc3cccs3)n2)cc1	Histone-lysine N-methyltransferase EHMT2 (Homo sapiens)	no (0)

Prompt: // return assay outcome for `CCC(=O)N1CCc2cc(Br)cc(S(=O)(=O)Nc3ccc(C)cc3C)c21`
Completion: no (0)

Prompt: Next compound: Cc1ccc(C(c2nnnn2C(C)(C)C)N2CCc3ccccc3C2)cc1 (configuration not stated)
Completion: no (0)

Prompt: Next compound: COc1ccc(OC)c(C(c2nnnn2C(C)(C)C)N2CCc3ccccc3C2)c1 (configuration not stated)
Completion: yes (1)

Prompt: Next compound: `COc1ccc(NC(=O)CCN2CCCC2)c(OC)c1`
Completion: no (0)

Prompt: Next compound: `CC(C)(C)OC(=O)NCCCCCC(=O)N/N=C/c1coc2ccccc2c1=O`
Completion: no (0)

---

- SUBJECT_OF_TEST: Histone-lysine N-methyltransferase EHMT2 (Homo sapiens) (UniProt Q96KQ7)
- Sequence (Q96KQ7 913-1193 limits assumed): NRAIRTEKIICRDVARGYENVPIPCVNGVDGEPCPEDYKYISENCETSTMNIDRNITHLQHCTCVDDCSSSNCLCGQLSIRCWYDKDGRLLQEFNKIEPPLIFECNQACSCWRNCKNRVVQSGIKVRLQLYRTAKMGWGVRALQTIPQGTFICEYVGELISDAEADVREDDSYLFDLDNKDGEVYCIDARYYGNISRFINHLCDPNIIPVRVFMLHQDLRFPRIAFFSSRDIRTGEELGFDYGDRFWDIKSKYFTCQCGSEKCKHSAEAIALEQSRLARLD
- METHOD_SUMMARY: qHTS Assay for Inhibitors of Histone Lysine Methyltransferase G9a; note: nearly all actives have a fitted effect of over 75% in size; for activity, negative = inhibition: % is set by controls: 0 for no effect and ±100 for the full control effect
- REPORTED_CONDITIONS: G9a H3K9 monomethylation, AlphaScreen, 2 h; series mostly up to 59 µM
In all, about 350,000 compounds went through this assay and about 31,000 (8.9%) were called active. About 15% were inconclusive and are not listed. The entries come from a sample that favours actives as a whole.
Can you tell me activity, negative = inhibition for the items I'm about to list?

Provide reported activity, negative = inhibition for each item, in the same order as listed.
1. COc1ccc([C@@H]2[C@@H]3C(=O)N(C(C)(C)C)C(=O)[C@@H]3[C@]3(Cc4ccccc4)C(=O)N(c4cccc(Br)c4)C(=O)N23)cc1
2. CCN(CC(=O)NCc1ccc(Cl)cc1)C(=O)c1c(C)noc1C
3. CC(OC(=O)/C=C/c1ccccc1)C(=O)NC1CCCCC1C (stereo not drawn)

Completion:
-84.6% [at 2.33 µM] (inactive)
-126% [at 12.7 µM] (inactive)
27.1% [at 12.7 µM] (inactive)

---

- SUBJECT_OF_TEST: Histone-lysine N-methyltransferase EHMT2 (Homo sapiens) (UniProt Q96KQ7)
- METHOD_SUMMARY: qHTS Assay for Inhibitors of Histone Lysine Methyltransferase G9a; note: nearly all actives have a fitted effect of over 75% in size
- REPORTED_CONDITIONS: G9a H3K9 monomethylation, AlphaScreen, 2 h; series mostly up to 59 µM
Hit rate of the full screen: of about 350,000 compounds, about 31,000 (8.9%) were called active. About 15% were inconclusive and are not listed. Calls follow the shape of the dose curve; as a rule, active = well fitted inhibition curve with a large enough effect; inconclusive = small, poorly fitted or top-dose-only effect; inactive = no such curve, though single readings can be large or run the other way. This excerpt belongs to a sample that is enriched for actives.
Valid outcomes are listed here; reply with one: class 1 (active), class 0 (inactive)

Use these answered entries as a reference point.
MOLECULE	SUBJECT_OF_TEST	LABEL_CLASS
CC1(c2ccc3ccccc3c2)NC(=O)NC1=O (stereo not given)	Histone-lysine N-methyltransferase EHMT2 (Homo sapiens) (UniProt Q96KQ7)	class 0
COc1cc2nc(Cl)nc(NCCO)c2cc1OC	Histone-lysine N-methyltransferase EHMT2 (Homo sapiens) (UniProt Q96KQ7)	class 0
COc1cccc(C2Nc3cccc4cccc(c34)N2)c1	Histone-lysine N-methyltransferase EHMT2 (Homo sapiens) (UniProt Q96KQ7)	class 1
CC(C)[C@@H]1COC(c2cccc(C3=N[C@H](C(C)C)CO3)c2)=N1	Histone-lysine N-methyltransferase EHMT2 (Homo sapiens) (UniProt Q96KQ7)	class 0
CCOc1ccc(CNC(=O)c2cccc(Nc3nc4ccccc4n4nnnc34)c2)cc1OC	Histone-lysine N-methyltransferase EHMT2 (Homo sapiens) (UniProt Q96KQ7)	class 0

Prompt: // return assay outcome for CCCCN1C(=O)c2[nH]nc(-c3ccccc3O)c2C1c1cccc(OCc2ccccc2)c1 (stereo not given)
Completion: class 0

Prompt: Next molecule: `COc1cc(Br)cc2cc(S(=O)(=O)c3ccccc3)c(=O)oc12`
Completion: class 0

Prompt: Next molecule: `Cc1ccc(Cl)cc1N1CCN(C(=O)c2cn(C)c3ccc(S(=O)(=O)N(C)C4CCCCC4)cc3c2=O)CC1`
Completion: class 0

Prompt: Next molecule: CCOC(=O)C1CCCN(CC(=O)Nc2cc(C)c3c(=O)oc4ccccc4c3n2)C1 (stereo not given)
Completion: class 0

Prompt: Next molecule: `CCn1cc2nc(SCc3ccccc3Cl)n(CCc3ccccc3)c(=O)c2n1`
Completion: class 0

---

- SUBJECT_OF_TEST: Histone-lysine N-methyltransferase EHMT2 (Homo sapiens) (UniProt Q96KQ7)
- METHOD_SUMMARY: qHTS Assay for Inhibitors of Histone Lysine Methyltransferase G9a; note: nearly all actives have a fitted effect of over 75% in size
- REPORTED_CONDITIONS: G9a H3K9 monomethylation, AlphaScreen, 2 h; series mostly up to 59 µM
The whole screen tested about 350,000 compounds, of which about 31,000 (8.9%) were called active. Not shown: some 15% with an inconclusive outcome. Calls come from the whole dose curve; as a rule, active = well fitted inhibition curve with a large enough effect; inconclusive = small, poorly fitted or top-dose-only effect; inactive = no such curve, though single readings can be large or run the other way. The list comes from a sample in which actives are over-represented; it also holds close analogues and randomly drawn compounds.
Valid outcomes are listed here; reply with one: y (active), n (inactive)

Use these answered entries as a reference point.
MOLECULE	LABEL_CLASS
COc1cccc(NC(=O)CC2C(=O)NCCN2C(=S)Nc2ccc(F)cc2)c1 (stereo not drawn)	n
O=C(COC(=O)c1ccccc1F)Nc1cc(S(=O)(=O)N2CCOCC2)ccc1N1CCCC1	y
O=C(c1cc(COc2ccc(F)cc2F)on1)N1CCOCC1	n

Prompt: // return assay outcome for `CCN(C(=O)c1sc2cc(OC)ccc2c1Cl)c1ccccc1`
Completion: n

Prompt: Next molecule: `Cc1cccc(N2CCN(C(=O)c3ccc(Nc4nc5ccccc5n5nnnc45)cc3)CC2)c1C`
Completion: n

Prompt: Next molecule: `CC(C)c1ccc(NC(=O)c2cc(S(=O)(=O)N3CCc4ccccc4C3)ccc2F)cc1`
Completion: y

Prompt: Next molecule: `COC(=O)c1ccccc1NC(=O)c1cc(-c2ccccc2O)no1`
Completion: n

Prompt: Next molecule: `COc1ccc(OCCCON2C(=O)c3ccccc3C2=O)cc1`
Completion: n

Prompt: Next molecule: `CCOC(=O)C1=C(c2ccc(OC)cc2)C(=O)c2ccccc2C1=O`
Completion: y

Prompt: Next molecule: `CCOC(=O)c1c(C)[nH]c2c1-c1ccccc1C(=O)C2=O`
Completion: n

Prompt: Next molecule: COc1ccc(NC(=O)CSc2nc3ccccc3n2CC(=O)N2CCCCC2C)cc1 (stereo not drawn)
Completion: n

Prompt: Next molecule: COc1ccc(C(=O)NC(=S)N2CCNC(=O)C2CC(=O)OC(C)C)cc1 (stereo not drawn)
Completion: y

Prompt: Next molecule: CCCCNC(=O)N1CCCC(N(C)CCc2ccc(OC)c(OC)c2)C1 (stereo not drawn)
Completion: n

Prompt: Next molecule: COc1ccc(/C=C/C(=O)NC(=S)N2CCCC(C(N)=O)C2)cc1 (stereo not drawn)
Completion: y

Prompt: Next molecule: Cc1[nH]c2ccccc2c1C(c1ccccc1)c1cccs1 (stereo not drawn)
Completion: n

Prompt: Next molecule: `Cc1nn2c3ccccc3nc2n(C)c1=O`
Completion: n

Prompt: Next molecule: `O=C(COC(=O)Cc1ccc(F)cc1)Nc1cc(S(=O)(=O)N2CCOCC2)ccc1N1CCCC1`
Completion: n

Prompt: Next molecule: `CCCCN(CC)CCCNC(=O)Cn1ncc2c([nH]c3ccc(C)cc32)c1=O`
Completion: n

Prompt: Next molecule: `CCC(=O)Nc1cccc(NC(=O)CSc2nnc(-c3ccc(NS(C)(=O)=O)cc3)n2C)c1`
Completion: n

Prompt: Next molecule: `Cc1ccc(Cl)cc1N1CCN(S(=O)(=O)c2cc3[nH]c(=O)c(=O)[nH]c3cc2C)CC1`
Completion: n

Prompt: Next molecule: `COc1ccccc1N1CCN(S(=O)(=O)c2ccc(Cl)cc2)CC1`
Completion: n

Prompt: Next molecule: `COc1cc(OC)cc(C(=O)Nc2cc3nn(-c4ccccc4)nc3cc2Cl)c1`
Completion: n

The origin of these recorded values is PubChem BioAssay AID504332.
